# subject.of.test: T1, human 5T4ECDHis (mature protein of SEQ ID NO: 99) (human, UniProt Q13641 32-355)
# T1 construct: ECD of human 5T4 (aa 1-355 of Uniprot Q13641) with C-terminal His tag; residues 1-31 are the signal peptide; also called ECD of human 5T4 with a C-terminal His tag
# T1 sequence: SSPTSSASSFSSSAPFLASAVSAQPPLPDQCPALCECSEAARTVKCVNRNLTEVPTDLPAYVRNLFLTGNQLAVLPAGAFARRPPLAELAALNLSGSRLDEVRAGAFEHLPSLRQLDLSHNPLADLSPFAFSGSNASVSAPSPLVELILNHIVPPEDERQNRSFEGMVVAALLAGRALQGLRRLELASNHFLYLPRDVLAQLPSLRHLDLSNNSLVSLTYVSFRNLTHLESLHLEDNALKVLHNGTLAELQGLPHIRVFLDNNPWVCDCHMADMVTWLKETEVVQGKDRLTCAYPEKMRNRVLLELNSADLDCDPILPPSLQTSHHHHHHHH
# protocol: BLI cross-block; competitor (immobilised): IgG1-5T4-A1-F405L
Consider the following binders; for each one, report its corrected association response.
Give the quantity in nm, number only.

For IgG1-5T4-207-FEAR (antibody, V domains shown, Monospecific, bivalent IgG1 FEAR) VH: QVQLQQWGAGLLKPSETLSLTCAVYGGSFSGYYWTWIRQPPGKGLEWIGEIDHSESTNYNPSLKSRVTISVDTSKNQFSLKLSSVTAADTAVYYCAGWFGELYHYYYGMDVWGQGTTVTVSS VL: EIVLTQSPATLSLSPGERATLSCRASQSVSSYLAWYQQKPGQAPRLLIYDASNRATGIPARFSGSGSGTDFTLTISSLEPEDFAVYYCQQRSNWPLTFGGGTKVEIKR the binder record lists corrected association response as 0.86

binder IgG1-5T4-H8-FEAR (antibody, V domains shown, Based on 5T4 antibody H8 from Wyeth (WO 2007/106744); IgG1 with L234F, L235E, D265A, K409R (FEAR); also called IgG1-5T4-HS-FEAR; IgG1-5T4-H8-FEAR-FITC) VH: EVQLQQSGPDLVKPGASVKISCKASGYSFTGYYMHWVKQSHGKSLEWIGRINPNNGVTLYNQKFKDKAILTVDKSSTTAYMELRSLTSEDSAVYYCARSTMITNYVMDYWGQVTSVTVSS VL: SIVMTQTPTFLLVSAGDRVTITCKASQSVSNDVAWYQQKPGQSPTLLISYTSSRYAGVPDRFIGSGYGTDFTFTISTLQAEDLAVYFCQQDYNSPPTFGGGTKLEIK , corrected association response observed: 0.89

Recorded values, source patent US20230257479A1.
